These measurements were taken from PubChem BioAssay.

This listing pairs compounds with measured composite z-score.
System: Plasmodium falciparum Sir2 (PF13_0152, Sir2A)
Assay: Plasmodium falciparum Sir2A binding compounds – biochemical, small-molecule microarray, 635 nm fluorescence, primary screen (AID 1098);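 also: score merges spot fluorescence intensity with its signal-to-noise ratio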
Details: fluorescence 635 nm, higher = more signal
Observation type: composite z-score

>  <Compound>
Cc1ccc([C@H]2C(C(=O)O)=CCN2S(=O)(=O)c2ccc(C)cc2)cc1

>  <Readout value>
0.487

$$$$
>  <Compound>
O=C1OCCC=C[C@H]2OC34C=CCN(c5ccc(Cl)cc5)C(=O)[C@H]3N(CCCO)C(=O)[C@@H]4C12 (some centres not stated)

>  <Readout value>
-0.41

$$$$
>  <Compound>
C=CCC(OC(C)=O)[C@@H]1[C@@H](N(Cc2ccc(-c3cccc(C(F)(F)F)c3)o2)C(=O)c2cccc3ccccc23)c2cc(OCCCO)ccc2N1C(=O)Cc1ccc2ccccc2c1 (some centres not stated)

>  <Readout value>
0.25

$$$$
>  <Compound>
O=C(NCCN1CCOCC1)[C@@H]1c2ccccc2C(=O)N(Cc2cc(C(F)(F)F)cc(C(F)(F)F)c2)[C@H]1c1ccc(CO)cc1

>  <Readout value>
1.51

$$$$
>  <Compound>
COCCCNC(=O)[C@@]1(CCS(=O)(=O)c2ccccc2)N=C(c2ccc(OCCCO)cc2)O[C@H]1c1ccccc1N=[N+]=[N-]

>  <Readout value>
1.41

$$$$
>  <Compound>
C=CCN1C(=O)[C@]2(O[C@H](CCO)[C@@H]([Si](C)(C)c3ccc(OC)cc3)[C@@H]2C)c2cc(N(C=O)c3ccccc3)ccc21

>  <Readout value>
0.465

$$$$
>  <Compound>
O=C1NC(=O)C2C1C=CC(C(O)c1ccc(-c3ccccc3)s1)N2Nc1ccc(Cl)cc1Cl (configuration not stated)

>  <Readout value>
1.02

$$$$
>  <Compound>
CN1C(=O)C2C=CC(C(O)C=Cc3ccc([N+](=O)[O-])cc3)N(Nc3ccccc3)C2C1=O (configuration not stated)

>  <Readout value>
0.967

$$$$
>  <Compound>
CC(c1ccccc1)C(O)C1C=CC2C(=O)N(C)C(=O)C2N1NC(=O)OC(C)(C)C (configuration not stated)

>  <Readout value>
1.16

$$$$
>  <Compound>
CCCCN1CC=CC23O[C@@H]4/C=C\CCCOC(=O)C4[C@H]2C(=O)N(CCCO)[C@@H]3C1=O (some centres not stated)

>  <Readout value>
0.992

$$$$
>  <Compound>
C=CC[C@]1(C(N)=O)COC(c2ccc(OCCCO)cc2)=N1

>  <Readout value>
-0.171

$$$$
>  <Compound>
CCOC(=O)C1=CC[C@H]2C(=O)N(c3ccccc3)C(=O)[C@@H]12

>  <Readout value>
1.67

$$$$
>  <Compound>
CCOC(=O)C1=C[C@@H](C(C)C)N(S(=O)(=O)c2ccc(C)cc2)[C@H]1c1ccccc1F

>  <Readout value>
0.906

$$$$
>  <Compound>
C=C(CCCC)/C(=C/C[C@H](OC(=O)c1ccncc1)c1ccc(OCCO)cc1)c1cc(C(=O)OC)ccc1OC

>  <Readout value>
0.694

$$$$
>  <Compound>
COCC(=C=CC[C@H](O)c1cccc(OCCO)c1)C[C@H](O)c1cc(Cl)cc(Cl)c1O

>  <Readout value>
0.516

$$$$
>  <Compound>
COc1ccc(-c2cc3c(c(Cc4ccccc4)n2)[Si](C(C)C)(C(C)C)OC3)cn1

>  <Readout value>
0.409

$$$$
>  <Compound>
C#CCN1[C@@H](Cc2ccc(O)cc2)C(=O)O[C@H](Cc2ccccc2)[C@@H]1/C=C/C1CC1

>  <Readout value>
-0.0032

$$$$
